Assay: Pharmacokinetics after IV and PO dosing
Details: mouse, in vivo, iv, 5 mg/kg
endpoint.label: AUC(0-t) at 8 h (µg·h/mL)

{"compound": "O=C(O)c1ccc2c(c1)nc(Nc1cccc(Cl)c1)c1ccncc12 [A1]", "endpoint.label": "AUC(0-t) at 8 h", "observed.value": 2.91}

---

Tested on: MiaPaCa
Assay: Cell proliferation assay (Alamar Blue)
Assay type: cell-based
Conditions: Homo sapiens, MIA PaCa-2, 96 h, MiaPaCa cells, four days
endpoint.label: IC50 (µM)

{"molecule": "O=C(O)c1ccc2c(c1)nc(Nc1ccc(F)c(Cl)c1)c1nc(NC3CC3)ncc12 [drawing 345]", "target.of.assay": "MiaPaCa", "inequality.sign": "=", "observed.value": 0.37}
{"molecule": "C#Cc1cccc(Nc2nc3cc(C(=O)OC)ccc3c3cnc(NOC)nc23)c1 [drawing 352]", "target.of.assay": "MiaPaCa", "inequality.sign": ">", "observed.value": 50}
{"molecule": "C#Cc1cccc(Nc2nc3cc(C(=O)O)ccc3c3cnc(NCCC)nc23)c1 [drawing 328]", "target.of.assay": "MiaPaCa", "inequality.sign": "=", "observed.value": 2.32}
{"molecule": "Clc1cccc(Nc2nc3cc(-c4nnn[nH]4)ccc3c3cnccc23)c1 [drawing 310]", "target.of.assay": "MiaPaCa", "inequality.sign": ">", "observed.value": 10}
{"molecule": "O=C(O)c1ccc2c(c1)nc(Nc1cccc(Cl)c1)c1ccncc12 [drawing 299]", "target.of.assay": "MiaPaCa", "inequality.sign": "=", "observed.value": 2.74}
{"molecule": "Nc1ncc2c(n1)c(Nc1cccc(Cl)c1)nc1cc(C(=O)O)ccc12 [drawing 339]", "target.of.assay": "MiaPaCa", "inequality.sign": "=", "observed.value": 0.88}
{"molecule": "COc1cccc(Nc2nc3cc(C(=O)O)ccc3c3cnc(NC4CC4)nc23)c1 [drawing 360]", "target.of.assay": "MiaPaCa", "inequality.sign": "=", "observed.value": 2.85}
{"molecule": "CNC(=O)c1ccc2c(c1)nc(Nc1cccc(C(F)(F)F)c1)c1nc(NC3CC3)ncc12 [drawing 366]", "target.of.assay": "MiaPaCa", "inequality.sign": "=", "observed.value": 11.9}
{"molecule": "O=C(O)c1ccc2c(c1)nc(Nc1ccc(F)c(Cl)c1)c1nc(NCc3ccccn3)ncc12 [drawing 362]", "target.of.assay": "MiaPaCa", "inequality.sign": "=", "observed.value": 8.21}
{"molecule": "O=C(O)CCNc1ncc2c(n1)c(Nc1cccc(Cl)c1)nc1cc(C(=O)O)ccc12 [drawing 355]", "target.of.assay": "MiaPaCa", "inequality.sign": ">", "observed.value": 50}
{"molecule": "O=C(O)c1ccc2c(c1)nc(Nc1ccccc1)c1nc(NCCCO)ncc12 [drawing 322]", "target.of.assay": "MiaPaCa", "inequality.sign": "=", "observed.value": 11.9}
{"molecule": "O=C(O)c1ccc2c(c1)nc(Nc1cc(F)cc(F)c1)c1ccncc12 [drawing 311]", "target.of.assay": "MiaPaCa", "inequality.sign": "=", "observed.value": 1.35}
{"molecule": "COC(=O)c1ccc2c(c1)nc(Nc1ccccc1)c1nc(SC)ncc12", "target.of.assay": "MiaPaCa", "inequality.sign": ">", "observed.value": 10}
{"molecule": "CNc1ncc2c(n1)c(Nc1ccc(F)c(Cl)c1)nc1cc(C(=O)O)ccc12 [drawing 343]", "target.of.assay": "MiaPaCa", "inequality.sign": "=", "observed.value": 0.65}
{"molecule": "COC(=O)c1ccc2c(c1)nc(Nc1cccc(Cl)c1)c1nc(NCCC(N)=O)ncc12 [drawing 353]", "target.of.assay": "MiaPaCa", "inequality.sign": "=", "observed.value": 17.1}
{"molecule": "O=C(O)c1ccc2c(c1)nc(Nc1ccc(F)c(Cl)c1)c1nc(NCc3ccncc3)ncc12 [drawing 368]", "target.of.assay": "MiaPaCa", "inequality.sign": "=", "observed.value": 4.5}
{"molecule": "COCCNc1ncc2c(n1)c(Nc1ccc(F)c(Cl)c1)nc1cc(C(=O)O)ccc12 [drawing 346]", "target.of.assay": "MiaPaCa", "inequality.sign": "=", "observed.value": 1.08}

---

Tested on: MCF-7
Assay: Cell proliferation assay (Alamar Blue)
Format: cell-based
Conditions: Homo sapiens, MCF7, 96 h, MCF-7 cells, four days
IC50 overview
endpoint.label: IC50 (µM)

{"compound": "C#Cc1cccc(Nc2nc3cc(C(=O)O)ccc3c3cncnc23)c1 [drawing 380]", "unit.tag": "µM", "inequality.sign": "=", "observed.value": 1.27}
{"compound": "O=C(O)c1ccc2c(c1)nc(Nc1ccccc1)c1ccncc12 [drawing 372]", "unit.tag": "µM", "inequality.sign": "=", "observed.value": 10.8}
{"compound": "Fc1cccc(Nc2nc3cc(-c4nnn[nH]4)ccc3c3cnccc23)c1 [drawing 381]", "unit.tag": "µM", "inequality.sign": ">", "observed.value": 50}
{"compound": "O=C(O)c1ccc2c(c1)nc(Nc1cc(F)cc(F)c1)c1ccncc12 [drawing 387]", "unit.tag": "µM", "inequality.sign": "=", "observed.value": 1.89}
{"compound": "O=C(O)c1ccc2c(c1)nc(Nc1ccc(Cl)cc1)c1ccncc12 [drawing 384]", "unit.tag": "µM", "inequality.sign": "=", "observed.value": 0.76}
{"compound": "N#Cc1cccc(Nc2nc3cc(C(=O)O)ccc3c3cnccc23)c1 [drawing 388]", "unit.tag": "µM", "inequality.sign": "=", "observed.value": 41}
{"compound": "O=C(O)c1ccc2c(c1)nc(Nc1ccc(F)c(Cl)c1)c1ccncc12 [drawing 373]", "unit.tag": "µM", "inequality.sign": "=", "observed.value": 8.24}
{"compound": "O=C(O)c1ccc2c(c1)nc(Nc1cccc(Cl)c1)c1ccncc12 [drawing 376]", "unit.tag": "µM", "inequality.sign": "=", "observed.value": 17.7}
{"compound": "O=C(O)c1ccc2c(c1)nc(Nc1cccc(Cl)c1)c1ncncc12 [drawing 379]", "unit.tag": "µM", "inequality.sign": "=", "observed.value": 1.79}

---

IC50 overview
Test system: BxPC3
Assay: Cell proliferation assay (Alamar Blue)
Type: cell-based
Conditions: Homo sapiens, BXPC-3, 96 h, BxPC3 cells, four days
Method: A representative cell-proliferation assay protocol using Alamar Blue dye (stored at 4°C, use 20ul per well) is described hereafter. 96-well plate setup and compound treatment • a. Split and trypsinize cells. • b. Count cells using hemocytometer. • c. Plate 4,000-5,000 cells per well in 100 µl of medium and seed into a 96-well plate according to the following plate layout. […] Record fluorescence at an excitation wavelength of 544nm and emission wavelength of 590nm using a microplate reader. […]

{"molecule": "O=C(O)c1ccc2c(c1)nc(Nc1ccc(F)c(Cl)c1)c1nc(NC3CC3)ncc12 [drawing 488]", "IC50 [µM]": 9.48}
{"molecule": "COC(=O)c1ccc2c(c1)nc(Nc1cccc(Cl)c1)c1nc(NCCC(N)=O)ncc12 [drawing 496]", "IC50 [µM]": 2.62}
{"molecule": "O=C(O)c1ccc2c(c1)nc(Nc1ccc(F)c(Cl)c1)c1ncncc12 [drawing 445]", "IC50 [µM]": 3.55}
{"molecule": "NC(=O)CCNc1ncc2c(n1)c(Nc1cccc(Cl)c1)nc1cc(C(=O)O)ccc12 [drawing 497]", "IC50 [µM]": 20.9}
{"molecule": "CN(C)CCNc1ncc2c(n1)c(Nc1ccc(F)c(Cl)c1)nc1cc(C(=O)O)ccc12 [drawing 504]", "IC50 [µM]": 1.52}
{"molecule": "COCCNc1ncc2c(n1)c(Nc1ccccc1)nc1cc(C(=O)O)ccc12 [drawing 463]", "IC50 [µM]": 3.92}
{"molecule": "C#Cc1cccc(Nc2nc3cc(C(=O)O)ccc3c3cnc(NCCOCC)nc23)c1 [drawing 490]", "IC50 [µM]": 0.69}
{"molecule": "O=C(O)c1ccc2c(c1)nc(Nc1ccccc1)c1nc(NC3CCNCC3)ncc12 [drawing 466]", "IC50 [µM]": 8.36}
{"molecule": "O=C(O)c1ccc2c(c1)nc(Nc1cc(F)cc(F)c1)c1ccncc12 [drawing 459]", "IC50 [µM]": 1.63}
{"molecule": "O=C(O)c1ccc2c(c1)nc(Nc1cc(F)cc(F)c1)c1nc(NC3CC3)ncc12 [drawing 501]", "IC50 [µM]": 14.9}
{"molecule": "O=C(O)c1ccc2c(c1)nc(Nc1cccc(Cl)c1)c1ncncc12 [drawing 451]", "IC50 [µM]": 1.48}
{"molecule": "NC(=O)c1ccc2c(c1)nc(Nc1cccc(C(F)(F)F)c1)c1nc(NC3CC3)ncc12 [drawing 507]", "IC50 [µM]": 0.33}
{"molecule": "C#Cc1cccc(Nc2nc3cc(C(=O)O)ccc3c3cnc(NC)nc23)c1 [drawing 475]", "IC50 [µM]": 1.6}
{"molecule": "Nc1ncc2c(n1)c(Nc1ccc(F)c(Cl)c1)nc1cc(C(=O)O)ccc12 [drawing 487]", "IC50 [µM]": 0.7}
{"molecule": "C#Cc1cccc(Nc2nc3cc(C(=O)O)ccc3c3cnc(NCCCOC(C)C)nc23)c1 [drawing 492]", "IC50 [µM]": 0.97}
{"molecule": "O=C(O)c1ccc2c(c1)nc(Nc1ccc(F)c(Cl)c1)c1nc(NCc3ccncc3)ncc12 [drawing 511]", "IC50 [µM]": 7.33}
{"molecule": "O=C(O)c1ccc2c(c1)nc(Nc1ccccc1)c1nc(NCCCO)ncc12 [drawing 465]", "IC50 [µM]": 9.41}
{"molecule": "O=C(O)c1ccc2c(c1)nc(Nc1cccc(C(F)(F)F)c1)c1ncncc12 [drawing 478]", "IC50 [µM]": 4.31}
{"molecule": "C#Cc1cccc(Nc2nc3cc(C(=O)O)ccc3c3cnc(NCCCOCC)nc23)c1 [drawing 491]", "IC50 [µM]": 0.48}
{"molecule": "O=C(O)c1ccc2c(c1)nc(Nc1cc(F)cc(F)c1)c1ncncc12 [drawing 449]", "IC50 [µM]": 3.34}
{"molecule": "C#Cc1cccc(Nc2nc3cc(C(=O)O)ccc3c3cnc(NCCCN4CCOCC4)nc23)c1 [drawing 474]", "IC50 [µM]": 3.6}
{"molecule": "O=C(O)c1ccc2c(c1)nc(Nc1cccc(C(F)(F)F)c1)c1ccncc12 [drawing 500]", "IC50 [µM]": 2.6}
{"molecule": "COCCNc1ncc2c(n1)c(Nc1ccc(F)c(Cl)c1)nc1cc(C(=O)O)ccc12 [drawing 489]", "IC50 [µM]": 1.61}
{"molecule": "CCOC(=O)CCNC(=O)c1ccc2c(c1)nc(Nc1cccc(C(F)(F)F)c1)c1nc(NC3CC3)ncc12 [drawing 514]", "IC50 [µM]": 8.76}
{"molecule": "CNc1ncc2c(n1)c(Nc1ccccc1)nc1cc(C(=O)O)ccc12 [drawing 455]", "IC50 [µM]": 1.83}
{"molecule": "C#Cc1cccc(Nc2nc3cc(C(=O)O)ccc3c3cnccc23)c1 [drawing 457]", "IC50 [µM]": 3.7}
{"molecule": "O=C(O)c1ccc2c(c1)nc(Nc1ccccc1)c1nc(NCCN3CCOCC3)ncc12 [drawing 468]", "IC50 [µM]": 4.67}
{"molecule": "C#Cc1cccc(Nc2nc3cc(C(=O)O)ccc3c3cnc(NCCOC)nc23)c1 [drawing 472]", "IC50 [µM]": 1.17}
{"molecule": "O=C(O)c1ccc2c(c1)nc(Nc1ccccc1)c1nc(Nc3ccccc3)ncc12 [drawing 512]", "IC50 [µM]": 40.1}
{"molecule": "CCOc1ncc2c(n1)c(Nc1cccc(C(F)(F)F)c1)nc1cc(C(=O)O)ccc12 [drawing 479]", "IC50 [µM]": 49.6}
{"molecule": "O=C(O)c1ccc2c(c1)nc(Nc1ccc(F)c(Cl)c1)c1nc(NCc3cccnc3)ncc12 [drawing 510]", "IC50 [µM]": 3.16}
{"molecule": "COC(CNc1ncc2c(n1)c(Nc1ccc(F)c(Cl)c1)nc1cc(C(=O)O)ccc12)OC [drawing 506]", "IC50 [µM]": 2.86}
{"molecule": "C#Cc1cccc(Nc2nc3cc(C(=O)O)ccc3c3cnc(NC4CC4)nc23)c1 [drawing 470]", "IC50 [µM]": 1.05}
{"molecule": "COc1cccc(Nc2nc3cc(C(=O)O)ccc3c3cnc(NC4CC4)nc23)c1 [drawing 503]", "IC50 [µM]": 8.68}
